# target: T1, mouse ACVR2A (mouse, UniProt P27038 20-135, limits assumed); note: test concentration or dose not given here
# T1 construct: coated antigen of the initial ELISA
# T1 sequence (P27038 20-135 limits assumed): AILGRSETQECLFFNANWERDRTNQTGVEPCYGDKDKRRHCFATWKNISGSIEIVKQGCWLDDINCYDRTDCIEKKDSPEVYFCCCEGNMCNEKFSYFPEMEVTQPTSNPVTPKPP
# assay: ELISA
readout: optical density (OD)
API: value field is a number in OD; no unit string.

369_B05 (antibody, V domains shown, Group III) VH: EVQLLESGGGLVQPGGSLRLSCAASGFTFDSYSMNWVRQAPGKGLEWVSGINYNGGYKSYADSVKGRFTISRDNSKNTLYLQMNSLRAEDTAVYYCARGANWHDTHLDYWGQGTLVTVSS VL: DIQMTQSPSSLSASVGDRVTITCRASQSIISYLNWYQQKPGKAPKLLIYAATSLASGVPSRFSGSGSGTDFTLTISSLQPEDFATYYCQQSYDTPLTFGGGTKVEIK = 3.06

Given the entry 367_D12 (antibody, V domains shown, Group III) VH: EVQLLESGGGLVQPGGSLRLSCAASGFTFSSYSMNWVRQAPGKGLEWVSSINYNGGYTGYADSVKGRFTISRDNSKNTLYLQMNSLRAEDTAVYYCARGANWHDTHLDYWGQGTLVTVSS VL: DIQMTQSPSSLSASVGDRVTITCRASQSIVSYVNWYQQKPGKAPKLVIYAATSRASGVPSRFSGSGSGTDFTLTISSLQPEDFATYYCQQSYESPLTFGGGTKVEIK , report its measured optical density.
2.69

Consider the binder 371_B03 (antibody, V domains shown, Group III) VH: EVQLLESGGGLVQPGGSLRLSCAASGFTFSSYGMHWVRQAPGKGLEWVASINYNGGYTSYADSVKGRFTISRDNSKNTLYLQMNSLRAEDTAVYYCARGANWHDTHLDYWGQGTLVTVSS VL: DIQMTQSPSSLSASVGDRVTITCRASQSILSYVNWYQQKPGKAPKLLIYATTSRASGVPSRFSGSGSGTDFTLTISSLQPEDFATYYCQQSYDNPLTFGGGTKVEIK and give its measured optical density.
1.94
